assay_overview: activity coefficient (dimensionless); of the first substance listed, at infinite dilution; xn = mol fraction of the nth substance listed
condition: 343 K; 87.4 kPa; Liquid; Chromatography; x1 = 0
quantity_name: activity coefficient

compound | number
C1CCCCC1 [cyclohexane] + O=S(=O)([N-]S(=O)(=O)C(F)(F)F)C(F)(F)F.O=S(=O)([N-]S(=O)(=O)C(F)(F)F)C(F)(F)F.c1ccc2cc(C[N+]3(CCCCCCCCC[N+]4(Cc5ccc6ccccc6c5)CCCC4)CCCC3)ccc2c1 | 2.49
CCCO [propan-1-ol] + O=S(=O)([N-]S(=O)(=O)C(F)(F)F)C(F)(F)F.O=S(=O)([N-]S(=O)(=O)C(F)(F)F)C(F)(F)F.c1ccc2cc(C[N+]3(CCCCCCCCC[N+]4(Cc5ccc6ccccc6c5)CCCC4)CCCC3)ccc2c1 | 1.01
CC(=O)O [acetic acid] + O=S(=O)([N-]S(=O)(=O)C(F)(F)F)C(F)(F)F.O=S(=O)([N-]S(=O)(=O)C(F)(F)F)C(F)(F)F.c1ccc2cc(C[N+]3(CCCCCCCCC[N+]4(Cc5ccc6ccccc6c5)CCCC4)CCCC3)ccc2c1 | 0.74
O=C1CCCC1 [cyclopentanone] + O=S(=O)([N-]S(=O)(=O)C(F)(F)F)C(F)(F)F.O=S(=O)([N-]S(=O)(=O)C(F)(F)F)C(F)(F)F.c1ccc2cc(C[N+]3(CCCCCCCCC[N+]4(Cc5ccc6ccccc6c5)CCCC4)CCCC3)ccc2c1 | 0.347

---

assay_overview: activity coefficient (dimensionless); of the first substance listed, at infinite dilution; xn = mol fraction of the nth substance listed
condition: 333 K; 87.4 kPa; Liquid; Chromatography; x1 = 0
Listing of recorded activity coefficient by entry.

compound | activity coefficient
CCOC(C)=O [ethyl acetate] + O=S(=O)([N-]S(=O)(=O)C(F)(F)F)C(F)(F)F.O=S(=O)([N-]S(=O)(=O)C(F)(F)F)C(F)(F)F.c1ccc2cc(C[N+]3(CCCCCCCCC[N+]4(Cc5ccc6ccccc6c5)CCCC4)CCCC3)ccc2c1 | 0.601
CCCCCCC [heptane] + O=S(=O)([N-]S(=O)(=O)C(F)(F)F)C(F)(F)F.O=S(=O)([N-]S(=O)(=O)C(F)(F)F)C(F)(F)F.c1ccc2cc(C[N+]3(CCCCCCCCC[N+]4(Cc5ccc6ccccc6c5)CCCC4)CCCC3)ccc2c1 | 5.44
Cc1cccc(C)c1 [1,3-dimethylbenzene] + O=S(=O)([N-]S(=O)(=O)C(F)(F)F)C(F)(F)F.O=S(=O)([N-]S(=O)(=O)C(F)(F)F)C(F)(F)F.c1ccc2cc(C[N+]3(CCCCCCCCC[N+]4(Cc5ccc6ccccc6c5)CCCC4)CCCC3)ccc2c1 | 0.941
CCN(CC)CC [triethylamine] + O=S(=O)([N-]S(=O)(=O)C(F)(F)F)C(F)(F)F.O=S(=O)([N-]S(=O)(=O)C(F)(F)F)C(F)(F)F.c1ccc2cc(C[N+]3(CCCCCCCCC[N+]4(Cc5ccc6ccccc6c5)CCCC4)CCCC3)ccc2c1 | 1.35
CCCCCCCC [octane] + O=S(=O)([N-]S(=O)(=O)C(F)(F)F)C(F)(F)F.O=S(=O)([N-]S(=O)(=O)C(F)(F)F)C(F)(F)F.c1ccc2cc(C[N+]3(CCCCCCCCC[N+]4(Cc5ccc6ccccc6c5)CCCC4)CCCC3)ccc2c1 | 7.4
CCCC(C)=O [pentan-2-one] + O=S(=O)([N-]S(=O)(=O)C(F)(F)F)C(F)(F)F.O=S(=O)([N-]S(=O)(=O)C(F)(F)F)C(F)(F)F.c1ccc2cc(C[N+]3(CCCCCCCCC[N+]4(Cc5ccc6ccccc6c5)CCCC4)CCCC3)ccc2c1 | 0.444
CC(=O)O [acetic acid] + O=S(=O)([N-]S(=O)(=O)C(F)(F)F)C(F)(F)F.O=S(=O)([N-]S(=O)(=O)C(F)(F)F)C(F)(F)F.c1ccc2cc(C[N+]3(CCCCCCCCC[N+]4(Cc5ccc6ccccc6c5)CCCC4)CCCC3)ccc2c1 | 0.746
C1COCCO1 [1,4-dioxane] + O=S(=O)([N-]S(=O)(=O)C(F)(F)F)C(F)(F)F.O=S(=O)([N-]S(=O)(=O)C(F)(F)F)C(F)(F)F.c1ccc2cc(C[N+]3(CCCCCCCCC[N+]4(Cc5ccc6ccccc6c5)CCCC4)CCCC3)ccc2c1 | 0.413
